# Tested on: SF-539 CNS
# test-name: NCI tumour cell line growth inhibition, 48 h
measurement-name: TGI

1. O=C1CCCNn2c(nc3ncccc3c2=O)N1 | > 100 µM
2. C#CC[C@@]12CC(=O)C[C@@H]1CCC1(C2)OCCO1 (tested in a mixture with another compound) | > 100 µM
3. NC(=N\N=C/c1ccc(O)cc1)/C(N)=N\N=C/c1ccc(O)cc1 | > 100 µM
4. CC(C)N(C(=O)c1cccc(C(=O)N(C(C)C)C(C)C)c1)C(C)C | > 100 µM
5. O=S(=O)(NC1CCCCC1)c1ccc2c(c1)OCCOCCOCCOCCO2 | > 100 µM
6. COc1cc(/C=C2\CC/C(=C\c3cc(OC)c(O)c(OC)c3)C2=O)cc(OC)c1O | > 100 µM
7. COc1c(C(C)=O)c(OCCCCOc2c(C(C)=O)c(OC)c3ccoc3c2OC)c(OC)c2occc12 | > 100 µM
8. C#C[C@]1(O)CC[C@H]2[C@@H]3CC=C4c5sc(Nc6cc(F)ccc6F)nc5CC[C@]4(C)[C@H]3CC[C@@]21C | 1.74 µM
9. Cc1ccc(/C=C(\C#N)c2cc3ccccc3n2C)cc1 | 1.02 µM
10. CC1CC/C(=C\c2ccc(F)cc2)C2=C1C(c1ccc(F)cc1)N1C(=O)CSC1=N2 (stereo not given) | > 100 µM
11. NC(Cc1ccc(OCc2ccccc2)cc1)C(=O)NC(Cc1ccccc1)C(=O)Oc1c(Cl)c(Cl)c(Cl)c(Cl)c1Cl (stereo not given) | 30.6 µM
12. Cc1cc2c(c(C(N)=O)c1C)-c1cccc(F)c1C2=O | > 100 µM
13. CCCCC(SC(=S)N1CCCC1)C(=O)Nc1nc(CC(=O)OCC)cs1 (stereo not given) | > 100 µM
14. C=C1CC(CC)(CCN2C(=O)c3ccccc3C2=O)OC1=O (stereo not given) | 46.6 µM
15. NS(=O)(=O)c1nc(S(=O)(=O)O)c2[nH]cnc2n1 | > 100 µM
16. COC(=O)c1ccccc1C1CN=NC12Cc1c(ccc3c1CCC3)C2=O (stereo not given) | > 100 µM
17. C/C=C(\C)C(=O)OC1CC(OC(C)=O)C2(C(=O)OC)COC3C2C1(C)C1C2(C(=O)OC)OCC1(C3O)C1(O)C3CC(C4(O)C=COC4O3)C1(C)O2 (stereo not given) | > 100 µM
18. C[C@H]1[C@H](C)N1CC(O)Cn1ccnc1[N+](=O)[O-] (stereo not given in full) | > 100 µM
19. COc1cc2cc(C(=O)N3CC(COS(C)(=O)=O)c4ccc(NC(=O)OCc5ccccc5)cc43)[nH]c2c(OC)c1OC (stereo not given) | > 100 µM
20. N#C/C(=C/C=C/c1ccco1)C(N)=O | > 10 µM
21. COC(=O)C1=C(OC(=O)/C(=C/c2ccccc2)c2ccc(OC)cc2)C(C(=O)OC)[C@@]2(O)[C@@H](C(=O)OC)[C@H](C)C[C@@H]1[C@@H]2C(=O)OC (stereo not given in full) | > 100 µM
22. NNC(=O)Nc1nc2ccc(NN)cc2[nH]1 | 28.5 µM
23. CC(=O)n1cc(C2CC23N=C(c2ccccc2)OC3=O)c2ccccc21 (stereo not given) | 41.2 µM
24. COc1ccc2c(c1)nc(NNC(=O)c1cnccn1)c1cccn12 | 2.6 µM
25. O=[N+]([O-])c1cccc(/C=N/NC2=CS(=O)(=O)C=C2)c1 | > 100 µM
26. CCOC(=O)/C(C(N)=O)=C(\O)C(=O)/C(Br)=C(\O)c1ccccc1 | 36.5 µM
27. COc1ccccc1OCC(COC(=O)Nc1ccccc1)OC(=O)Nc1ccccc1 (stereo not given) | 33.4 µM
28. [2H]C([2H])([2H])NC(=O)c1nnc(NC(=O)C2CC2)cc1Nc1cccc(-c2ncn(C)n2)c1OC | > 100 µM
29. Oc1c(C(Nc2ccccc2Br)c2ccccc2)ccc2cccnc12 (stereo not given) | 13.5 µM
30. O=c1c2c([nH]c3nccn13)CCC2 | > 10 µM
31. Cc1ccc(S(=O)(=O)NC(CCC(=O)NNc2ccccc2)C(=O)NNc2ccccc2)cc1 (stereo not given) | > 100 µM
32. O=[N+]([O-])/C=C/c1c(Cl)cccc1Cl | 5.12 µM
33. O=[N+]([O-])c1ccc(NN=C2CN3CCN(C2)c2ccccc23)c([N+](=O)[O-])c1 | > 100 µM
34. CC(C)(C)OC(=O)N/C(C=O)=C\C1CCCCC1 | 87.6 µM
35. CC1=CC2C(C(O)CC3(C)C2CC(C)C32OCOC23COCO3)C2(C)C/C(=C/O)C(=O)C=C12 (stereo not given) | 3.64 µM
36. Cc1cc(C)c2c(c1)CC1(Cc3cc(C)c(C)cc3C1=O)C2=O (stereo not given) | > 100 µM
37. Cc1ccc(S(=O)(=O)N/N=C(\c2nc3ccc(Cl)cc3[nH]c2=O)C(O)c2ccco2)cc1 (stereo not given) | > 100 µM
38. CCCC[C@@H](C)/C=C1\CN2CCC[C@H]2[C@@](C)(OCc2ccccc2)[C@@H]1O | 49.7 µM
39. Cc1cn(C2CCC(CO)(CF)O2)c(=O)[nH]c1=O (stereo not given) | > 100 µM
40. CN1C(=O)c2ccc3ccccc3c2C1=O | > 100 µM
